experiment: qHTS RealTime-Glo MT Cell Viability Assay in HepG2 cells - 24 hour (AID 1224867); note: nearly all actives have a fitted effect of over 50% in size
conditions: RealTime-Glo luminescence; series mostly up to 76.8 µM
Inconclusive results are not listed. The source made the active and inactive calls. Calls come from the whole dose curve; as a rule, active = well fitted cell-killing curve with a large enough effect in the repeat runs; inconclusive = weak or mixed curves; inactive = flat fitted curve, though single readings scatter.
In this exercise, the only acceptable responses are t for active, f for inactive

Asked: Each compound tested received a call. Report the one for CC/C(=C(\c1ccccc1)c1ccc(OCCN(C)C)cc1)c1ccccc1 .
Given back: t

Asked: // outcome(item) with item = CCCCCCCC(=O)OCC(COC(=O)CCCCCCC)OC(=O)CCCCCCC
Given back: f

Asked: Outcome logged for CC1(C)O[C@@H]2C[C@H]3[C@@H]4CCC5=CC(=O)C=C[C@]5(C)[C@@]4(F)[C@@H](O)C[C@]3(C)[C@]2(C(=O)CO)O1 in this assay:
Given back: f

Asked: What classification did C=C(C)C(=O)OCC(C)O (centres undefined) end up with in this test?
Given back: f

----------
experiment: qHTS assay to identify small molecule antagonists of the estrogen receptor alpha (ER-alpha) signaling pathway - cell viability counter screen (AID 743074);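 note: HEK293 cells carrying ER-alpha-UAS-bla reporter stimulated with 17beta-estradiol; nearly all actives have a fitted effect of over 45% in size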
conditions: ERalpha-bla HEK293 viability, CellTiter-Glo luminescence, 18 h; series mostly up to 69.4 µM
Inconclusive results are not listed. Activity calls are given as the source filed them. The call rests on the fitted dose curve.
Field 'call' accepts active, inactive

Asked: What classification did C1CCC(C(CC2CCCCN2)C2CCCCC2)CC1 (stereo unspecified) end up with in this test?
Given back: active

Asked: Assay result, entry CNNCc1ccc(C(=O)NC(C)C)cc1 — outcome?
Given back: inactive

Asked: Field: outcome | Entry: O=C1c2c(O)cccc2Cc2cccc(O)c21
Given back: inactive

Asked: Recorded test outcome, item CCCCCCCC(=O)OCC(COC(=O)CCCCCCC)OC(=O)CCCCCCC
Given back: inactive

Asked: // return assay outcome for CC(C)NCC(O)c1ccc(O)c(O)c1 (stereo unspecified)
Given back: inactive

Asked: Lab log entry: CCCCCCc1ccc(O)cc1O — outcome as called in the assay?
Given back: inactive

Asked: Just curious, what result did CCCCNC(=O)NS(=O)(=O)c1ccc(C)cc1 get here?
Given back: inactive

Asked: Assay outcome for Cn1c(=O)c2c(ncn2C)n(C)c1=O : what was it?
Given back: inactive

Asked: Write down the call the test reported for this compound. Item: CS(=O)(=O)OCCCCOS(C)(=O)=O
Given back: inactive

Asked: # fetch the recorded call for CN(N=O)C(=O)N[C@@H]1[C@@H](O)[C@H](O)[C@@H](CO)O[C@@H]1O here
Given back: inactive

Asked: Hi team, can someone confirm the assay call for O=C1OC2(c3ccccc31)c1cc(Br)c(O)c(Br)c1Oc1c2cc(Br)c(O)c1Br ?
Given back: inactive

Asked: Dear colleague, could you share the recorded outcome for CCCc1cc(=O)[nH]c(=S)[nH]1 when you have a moment?
Given back: inactive

Asked: How did this test come out for CCCC[P+](CCCC)(CCCC)CCCC ?
Given back: inactive

Asked: So what was the verdict on CCOC(N)=O in this test?
Given back: inactive

Asked: Kindly provide the recorded test outcome for the following compound: Nc1ccc(S(N)(=O)=O)cc1
Given back: inactive

Asked: Identify the outcome logged in this assay for the compound shown: NC(=O)n1c(O)c(C(=O)c2cccs2)c2cc(Cl)ccc21
Given back: inactive

Asked: Answer briefly: the call reported for F[B-](F)(F)F in this assay.
Given back: inactive

Asked: Which outcome did this test record for the compound O=C1NC(=O)C(c2ccccc2)(c2ccccc2)N1 ?
Given back: inactive

Asked: Which outcome did this test record for the compound CCN(CC)C(=O)c1cccc(C)c1 ?
Given back: inactive

Asked: // return assay outcome for NS(=O)(=O)c1cc2c(cc1Cl)NCNS2(=O)=O
Given back: inactive

Asked: Hey, what did the test say about CC1(C)O[C@@H]2C[C@H]3[C@@H]4CCC5=CC(=O)C=C[C@]5(C)[C@@]4(F)[C@@H](O)C[C@]3(C)[C@]2(C(=O)CO)O1 ?
Given back: inactive

Asked: Tell me the recorded outcome of this test for CN1[C@@H]2CC(OC(=O)[C@H](CO)c3ccccc3)C[C@H]1[C@@H]1O[C@@H]12 (stereo partly specified) .
Given back: inactive

Asked: Hello, I am checking results. What call was entered for COc1ccc2c(c1)c(CC(=O)O)c(C)n2C(=O)c1ccc(Cl)cc1 ?
Given back: inactive

Asked: So what was the verdict on CCCCC(CC)C(=O)O (stereo unspecified) in this test?
Given back: inactive

Asked: What call does the record list for CN1CCc2cccc3c2[C@H]1Cc1ccc(O)c(O)c1-3 ?
Given back: inactive

Asked: Entry O=C(O)c1ccccc1 : call = ?
Given back: inactive

Reference source: PubChem BioAssay (Tox21)
